Where these numbers come from: the supplement of paper PMC9170038

Entries annotated with measured apparent KD of MS2 coat protein
- Test system: MS2 coat protein
- test.description: apparent KD of MS2 coat protein; designed switch direction (-1 OFF switch, 1 ON switch): -1; higher = weaker reporter binding
- assay.setup: Eterna round: R95; input ligand: FMN 200 uM

[
  {
    "primary.sequence": "CAUACUCAAGUCAGGAUAUGCAGUCGAAUACGGGUGUAGAAGGGACAUGAGGAUCACCCAUGUAGAGAGUAAAG [EX-4 Malc #21] (puzzle: Brourd's mod of Exclusion 4)",
    "reading.unit": "nM",
    "apparent KD of MS2 coat protein": 99.8
  },
  {
    "primary.sequence": "AAGUACCGUCACGAUAGUGAUGGUACAACAAGCAUGUAAACAUGAGGAUCACCCAUGUCCUCAAAUGCUCGUCUUAU [Sensor 3 - 65] (puzzle: Sensor v3, turn-off variant 2)",
    "reading.unit": "nM",
    "apparent KD of MS2 coat protein": 556
  },
  {
    "primary.sequence": "AAUAACAGAGGAUAUACUAAAAUAUGAAUAAAAUAAAUAAAACAUGAGGAUCACCCAUGUAGAAGGCUGAAUAA [JMF's Not so obvious solution 7] (puzzle: Exclusion 2)",
    "reading.unit": "nM",
    "apparent KD of MS2 coat protein": 26
  },
  {
    "primary.sequence": "AGUACUGACACGUUGGUGUUAGUACAAUAAGCUUGUGAUACAUGAGGAUCACCCAUGUCCUCAUAAGCUCGUCUUAU [salish99_TOv2_r2_093] (puzzle: Sensor v3, turn-off variant 2)",
    "reading.unit": "nM",
    "apparent KD of MS2 coat protein": 26.1
  },
  {
    "primary.sequence": "CAUGAUCUUCGGAUCAUGUACAUGAGGAUCACCCAUGUUACGAGCUGAUUUUCAUACAAGCUUUUUGCUCGUCUUAU [Sensor v3 - Turn-off variant 1 - 30] (puzzle: Sensor v3, turn-off variant 1)",
    "reading.unit": "nM",
    "apparent KD of MS2 coat protein": 41.5
  }
]

====

- Test system: K4 kissing-loop RNA reporter;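 further: bound reporter read as fluorescence of individual clusters on recovered sequencing chips by microscopy, with normalized cluster intensities fitted with a binding model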
- test.description: apparent KD of K4 kissing-loop reporter; higher = weaker reporter binding
- assay.setup: Eterna round: R107; input ligand: arginine 13.2 mM
Entry flag: criterion met if apparent KD of K4 kissing-loop reporter reaches 300 nM; criterion not met if it does not.

[
  {
    "primary.sequence": "UGUACCGAGUUAGGAUAUGUCGUCGAAAGACGAAAUGGAGUGAUGUUCCUUAAACUGCGAAAGCAGACAGAAGGAACUUGGUACU [FmnBS 29 U11+A75]",
    "test.system": "K4 kissing-loop RNA reporter",
    "class": "criterion met"
  },
  {
    "primary.sequence": "UUGUUUGGUUGAGAGGUUGGGCGAAAUGAUACCAGUAUAUAAGAAUACCCUUGGCAGCAUAAGAAAGAUAUAGUGAUGUUGUAUA [SSTheophA.L]",
    "test.system": "K4 kissing-loop RNA reporter",
    "class": "criterion met"
  },
  {
    "primary.sequence": "UAUACUAGACAAGAGAGAAUUCUCUCAAGAGAGGAUAUCCGAAUUCGGAGAAGGCUCUCUCAGUGAUGUUGGGUAUAGUCUAGAA [AK7 SS FMN A]",
    "test.system": "K4 kissing-loop RNA reporter",
    "class": "criterion not met"
  },
  {
    "primary.sequence": "GUUAUAUAAAUAAGAAAUAAAAUAAGGGAAGGAGCGCCGAGAAAGGCAGGUAGGUCGCCCAGUGAUGUUGGGAUUAAUUAAUUAG",
    "test.system": "K4 kissing-loop RNA reporter",
    "class": "criterion not met"
  },
  {
    "primary.sequence": "AGGCGCUUAAGUCAGUGAUGUUGAUUAUAUCGAGGACCGGUACGGCCGCCACUCGGCUUUCAUCCGCCAUCGUAGUCCUAAAACC [theeternabot_sameState_KL_Trp_A_25]",
    "test.system": "K4 kissing-loop RNA reporter",
    "class": "criterion met"
  },
  {
    "primary.sequence": "ACCUACCAUUAGUGAUGUUAAUGGACGGAAGGAGCGCGGAUAUCCGCAGGUAGGUCGCCGAAGGCUAGACAUUGUCUAGCCAUUA [AK1.2 SS Arginine A]",
    "test.system": "K4 kissing-loop RNA reporter",
    "class": "criterion not met"
  },
  {
    "primary.sequence": "GGAUCCACCAGUGAUGUUGGAGAAAACUCAAAGGAUAUGACGAAAGUCAGAAGGUUGUAGACUGGACAAAGUCCGGUCGGAUCCA [FmnA 19 A30+U56]",
    "test.system": "K4 kissing-loop RNA reporter",
    "class": "criterion met"
  },
  {
    "primary.sequence": "UGGACCAAGGAGUGAUGUUCCAUAUGUGAUACCAGCCACGAAAGUGGCCCUUGGCAGCACUGCCAGGACGAAAACGUCCGGUCCU [#SwitchBubble 13 #StaticStem #K4Early]",
    "test.system": "K4 kissing-loop RNA reporter",
    "class": "criterion met"
  },
  {
    "primary.sequence": "CUGGUGCUGAUGCGGUGGCCGGUGGUCGUGCGAGGACCGGUACGGCCGCCACUCGCAUGAGUGAUGUUCAUGUGUCGUCGUCGUC [whbob_EX_Tryp_A_t1]",
    "test.system": "K4 kissing-loop RNA reporter",
    "class": "criterion not met"
  },
  {
    "primary.sequence": "AUUCAGAUCUGAAGGAGCGCGUUGACAUAUUGCUUCAUUGAGCAGUGAUGUUGCUCAGUAACGCAGGUAGGUCGCAGAUCUGGCC [Arg B Ex t7a]",
    "test.system": "K4 kissing-loop RNA reporter",
    "class": "criterion not met"
  },
  {
    "primary.sequence": "CGAGUGAUGUUCGAAGAGUUGUUAAGCGAUACCAGCUAGGAAACUGGCCCUUGGCAGCGUAAUAAGUUAAUAAAUAAAUGAUCAC [whbob_Ex_Theo_A_th64]",
    "test.system": "K4 kissing-loop RNA reporter",
    "class": "criterion met"
  },
  {
    "primary.sequence": "CUGAUGCUGAUGCGGUGGCCGGUGGUCGUGCGAGGACCGGUACGGCCGCCACUCGCAUGAGUGAUGUUCAUGUGUCGUCGUCGUC [#04 K4 Tryptophan A Exclusion]",
    "test.system": "K4 kissing-loop RNA reporter",
    "class": "criterion not met"
  }
]
